molecular target: human FPR2 (Homo sapiens (Human)); assay: FPR2 cyclic adenosine monophosphate (cAMP) assay; type: cell-based; settings: CHO cells overexpressing human FPR2; forskolin 5 µM; inhibition of cAMP production; read-out: hFPR2 cAMP2 EC50
Sequence (P25090 whole entry): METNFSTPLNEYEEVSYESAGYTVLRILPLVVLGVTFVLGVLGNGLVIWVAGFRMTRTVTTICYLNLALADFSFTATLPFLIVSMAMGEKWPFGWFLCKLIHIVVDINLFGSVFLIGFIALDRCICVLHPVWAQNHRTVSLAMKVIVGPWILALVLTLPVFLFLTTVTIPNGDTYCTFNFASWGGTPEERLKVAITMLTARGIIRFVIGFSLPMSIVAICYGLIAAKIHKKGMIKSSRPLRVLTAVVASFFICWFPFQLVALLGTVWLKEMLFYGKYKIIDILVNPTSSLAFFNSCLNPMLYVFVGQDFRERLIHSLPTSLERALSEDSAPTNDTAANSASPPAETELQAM
MEASURED_ATTRIBUTE: pEC50
Units for pEC50: none; it is -log10 of a concentration expressed in mol/L.

Asked: Quick check: pEC50 of COc1cc(F)c([C@@H]2CN(c3nccc(N4C[C@@H](C)N(C)[C@@H](C)C4)c3C(F)(F)F)C(=O)[C@H]2NC(=O)c2ccc(Cl)cc2)c(F)c1 [Example 181] ?
Given back: 8.32

Asked: Quick check: pEC50 of COCCn1nccc(N2C[C@@H](c3c(F)cc(OC)cc3F)[C@H](NC(=O)c3ccc(OC(F)F)cc3)C2=O)c1=O [Example 398] ?
Given back: 8.14

Asked: Quick check: pEC50 of Cc1ccn(CC2CC2)c(=O)c1N1C[C@@H](c2ccc(Cl)cc2)[C@H](NC(=O)c2ccc(OC(F)F)cc2)C1=O [Example 442] ?
Given back: 8.02

Asked: Quick check: pEC50 of COc1cc(F)c([C@@H]2CN(c3c(C)c4c(n(CCO)c3=O)CCCC4)C(=O)[C@H]2NC(=O)c2ccc(Cl)cc2)c(F)c1 [Example 607] ?
Given back: 7.88

Asked: Quick check: pEC50 of COc1cc(F)c([C@@H]2CN(c3cccn(CC(C)O)c3=O)C(=O)[C@H]2NC(=O)c2ccc(OC(F)F)cc2)c(F)c1 (stereo partly shown) [Example 141] ?
Given back: 8.44

Asked: Quick check: pEC50 of COCCOc1ncccc1N1C[C@@H](c2c(F)cc(OC)cc2F)[C@H](NC(=O)c2ccc(OC(F)F)cc2)C1=O [Example 412] ?
Given back: 8.12

Asked: Quick check: pEC50 of COCC(C(=O)N1CCOCC1)n1cccc(N2C[C@@H](c3ccc(OC)cc3)[C@H](NC(=O)c3ccc(OC(F)F)cc3)C2=O)c1=O (stereo partly shown) [Example 441] ?
Given back: 8.28

Asked: Quick check: pEC50 of COc1cc(F)c([C@@H]2CN(c3c(C(F)(F)F)ccn(C)c3=O)C(=O)[C@H]2NC(=O)c2ccc(OC(F)F)cc2)c(F)c1 [Example 311] ?
Given back: 8.00

Asked: Quick check: pEC50 of COc1cc(F)c([C@@H]2CN(c3nccn(C4CC4)c3=O)C(=O)[C@H]2NC(=O)c2ccc(Cl)cc2)c(F)c1 [Example 546] ?
Given back: 8.68

Asked: Quick check: pEC50 of COCCn1cccc(N2C[C@@H](c3ccc(OC)cc3)[C@H](NC(=O)c3ccc(OC(F)(F)F)cc3)C2=O)c1=O [Example 60] ?
Given back: 8.80

Asked: Quick check: pEC50 of COCCn1ccc(C)c(N2C[C@@H](c3ccc(OC)cc3F)[C@H](NC(=O)c3ccc(OC(F)F)cc3)C2=O)c1=O [Example 208] ?
Given back: 8.27

Asked: Quick check: pEC50 of COc1ccc([C@@H]2CN(c3c(C)ccn(CC4CC4)c3=O)C(=O)[C@H]2NC(=O)c2ccc(OC(F)F)cc2)cc1 [Example 459] ?
Given back: 9.05

Asked: Quick check: pEC50 of CCn1cccc(N2C(=O)[C@@H](NC(=O)c3ccc(OC(F)F)cc3)[C@H](c3c(F)cc(OC)cc3F)[C@H]2C)c1=O [Example 255] ?
Given back: 8.15
